Test system: Plasmodium falciparum NF54 stage IV/V gametocytes
method: % inhibition of gametocyte viability (ATP bioluminescence); higher = more inhibition
measurement-setup: 5 µM; 24 h
reported-endpoint: % inhibition of gametocyte viability (%)

1) NCC(=O)Nc1ccc(-n2nc(C(F)(F)F)cc2-c2ccc3c(ccc4ccccc43)c2)cc1    93.6
2) O=c1oc2ccc(Br)cc2cc1CSc1ncc[nH]1    5.34
3) CC[N+]1(C/C2=C/CCCCCC2)CCC(NC(=O)C2c3cc(Cl)ccc3Oc3ccc(Cl)cc32)CC1 (stereo not given)    44
4) COc1cc(NS(=O)(=O)c2ccc(C)cc2)c2ncccc2c1    62.2

* * *

System: HepG2-A16-CD81
method: % inhibition of HepG2 viability (CellTiter-Glo); higher = more toxic
measurement-setup: 5 µM
Quick reference: % inhibition of HepG2 viability of the listed items.
reported-endpoint: % inhibition of HepG2 viability (%)

1) CN1CCN(Cc2ccc(-c3cnc4[nH]cc(-c5ccc6[nH]ccc6c5)c4c3)cc2)CC1    21.4
2) Clc1cc2nc(C3CCNCC3)n(Cc3ccc(CNCCc4cnc[nH]4)cc3)c2cc1Cl    2.02
3) CCOc1ccc(/C=N/NC(=O)C2CC2c2ccc(C(C)(C)C)cc2)cc1OCC (stereo unspecified)    -8.74
4) CC1CCc2c(N3CCC(O)CC3)c(F)cc3c(=O)c(C(=O)O)cn1c23 (stereo unspecified)    2.9
5) CC(C)Oc1ccc(-c2nc(-c3cccc4c3CC[C@@H]4NCCO)no2)cc1C#N    -1.14
6) O=C(NC(=O)N1CCCc2ccccc21)c1cccc(Cl)c1    1.03
7) CC[C@@]1(O)C(=O)OCc2c1cc1n(c2=O)Cc2cc3c([N+](=O)[O-])cccc3nc2-1    65.7
8) Cc1cc(CCOc2c(C)cc(-c3nnn(C)n3)cc2C)on1    -1.96
9) Cc1c(CN(C)C(=O)/C=C/c2cnc3c(c2)C(C)(C)C(=O)N3)oc2ccccc12    9.28
10) CC1(C)C[C@H]1C(=O)N/C(=C\CCCCSC[C@@H](N)C(=O)O)C(=O)O    -5.39
11) Nc1nnc(-c2ccc(Cl)cc2)s1    -0.915
12) NC(=O)c1c(N)sc2c1CCCCC2    6.02
13) CN(C)c1[nH]c(=O)ncc1F    11.9
14) O=C(O)C(Cc1c[nH]c2ccccc12)N1C(=O)c2ccccc2C1=O (stereo unspecified)    -0.93
15) Nc1nc(O)c2ncn(COCCO)c2n1    1.64
16) Cc1cccc(CC(=O)N[C@H]2CCOC2=O)c1    5.04
17) CCCCc1ccc(-c2cc(C(=O)O)cc(-c3ccc(Cl)cc3)n2)cc1    14.4
18) O=C(CC1Sc2ncnn2C1=O)Nc1ccc(Br)cc1 (stereo unspecified)    -3.25
19) C=C[C@]1(C)C[C@@H](OC(=O)CS[C@@H]2C[C@H]3CC[C@@H](C2)N3C)[C@]2(C)[C@H](C)CC[C@]3(CCC(=O)[C@H]32)[C@@H](C)[C@@H]1O    7.56
20) CN1c2ccc(Cl)cc2N(c2ccccc2)C(=O)c2cn(Cc3ccc(CN4CCOCC4)cc3)nc21    -4.81
21) C=C(C)n1c(=O)n(Cc2ccccc2C)c2ccccc21    3.81

* * *

Tested on: HepG2-A16-CD81;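 further: HepG2-A16-CD81 hepatoma cells plated as in the liver-stage assay but without sporozoites, with DMSO wells as negative and 25 µM puromycin as positive control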
method: % inhibition of HepG2 viability (CellTiter-Glo); higher = more toxic
measurement-setup: 5 µM
reported-endpoint: % inhibition of HepG2 viability (%)

1. CCOC(=O)/C=C/[C@H](C[C@@H]1CCNC1=O)NC(=O)[C@@H](CC(=O)[C@@H](NC(=O)c1cc(C)on1)C(C)C)Cc1ccc(F)cc1    2.38
2. O=C(Nc1ccc(-c2ccccc2)cc1)C1=C(O)C(Cc2ccccc2)OC1=O (stereo not drawn)    13.1
3. CCOC(=O)N1CCN(c2ccc(Cl)cc2)CC1    -3.4
4. CCCCCCCc1[nH]c2ccccc2c(=O)c1O    24.8
5. CSC[C@H]1CN(Cc2c[nH]c3c(N)ncnc23)C[C@@H]1O    8.54
6. CC[C@@H](CO)NCCN[C@@H](CC)CO    -1.81
7. C[C@@H](NC(=O)c1cccc(-c2c[nH]c(-c3cc4ccccc4cn3)n2)c1)c1ccc(F)cc1    -1.52
8. CC(C)Oc1ccc(-n2cnc3cc(/C=C\c4ccc(C(C)(C)O)cc4)ccc32)cc1    5.08
9. CCOC(=O)/C=C/[C@H](C[C@@H]1CCNC1=O)NC(=O)[C@H](CC)n1cccc(NC(=O)c2cc(C)on2)c1=O    0.129
10. COc1ccccc1NC(=O)c1ccccc1Sc1ccc([N+](=O)[O-])cc1    -1.52
11. C[C@@H](c1nc(-c2ccc(C#N)cc2)cs1)[C@](O)(Cn1cncn1)c1ccc(F)cc1F    3.07
12. O=C(NCc1ccc2c3c(cccc13)C(=O)N2)c1cccs1    1.86
13. NNC(=O)c1ccncc1    8.54
14. CN(C/C=C/C#CC(C)(C)C)Cc1cccc2ccccc12    -4.35
15. Cc1cc(-c2ccccc2)c(C(=O)C(=O)Nc2ccc(N3CCN(c4ncc(F)cn4)CC3)cc2)n1C    10.6
16. Oc1cccc(C(Nc2nccs2)c2ccc3cccnc3c2O)c1 (stereo not drawn)    9.72
17. O=C(/C(=C/c1ccc(Cl)cc1Cl)n1ccnc1)c1ccc(Cl)cc1    -2.24
18. CC(C)Cn1c(=O)n(C)c(=O)c2c(-c3cncn3C)n(Cc3cccc4ccccc34)nc21    8.23
19. Oc1ccc(NCc2ccccc2OCc2ccccc2)cc1    -1.04
20. CCc1oc2ccccc2c1C(=O)c1ccc(O)cc1    9.97
21. c1cnc(NCc2ccc(CNc3ncccn3)cc2)nc1    -9.29
22. COc1ccc(NC(=O)CC2Sc3ncnn3C2=O)cc1 (stereo not drawn)    10.8
23. O=C(c1cc(O)nc2ccccc12)N1CCN(c2ccccc2)CC1    -2.09

* * *

Test system: Plasmodium falciparum NF54 stage IV/V gametocytes
method: % inhibition of gametocyte viability (luciferase reporter); higher = more inhibition
measurement-setup: 1 µM; 48 h
reported-endpoint: % inhibition of gametocyte viability

1) CC(=O)Nc1cc(NS(=O)(=O)c2ccc(Cl)cc2)cc2c(Cl)n[nH]c12    < 0%
2) NC(=O)c1cnccn1    < 0%
3) CCOC(=O)/C=C/[C@H](C[C@@H]1CCNC1=O)NC(=O)[C@@H](CC(=O)[C@@H](NC(=O)c1cc(C)on1)C(C)C)Cc1ccc(F)cc1    1.29%
4) CCCC(=O)OCCc1ccccc1    < 0%
5) COC(=O)Nc1nc2cc(Sc3ccccc3)ccc2[nH]1    < 0%
6) C=CCc1cc(Cc2cnc(N)nc2N)cc(OC)c1O    < 0%
7) NCC(=O)Nc1ccc(-n2nc(C(F)(F)F)cc2-c2ccc3c(ccc4ccccc43)c2)cc1    < 0%
8) CC(C)(C)c1cccc(-c2nc3cc(C(=N)N)ccc3[nH]2)c1O    < 0%
9) N=C(N)NCCCCC(=O)Nc1cc(C(F)(F)F)cc(NC(=O)c2cc(C(=O)Nc3cc(C(F)(F)F)cc(NC(=O)CCCCNC(=N)N)c3O[C@@H]3CCNC3)ncn2)c1O[C@@H]1CCNC1    19.3%
10) OB1OCc2c1ccc(Cl)c2F    < 0%
11) Nc1nc(O)c2ncn(COCCO)c2n1    < 0%
12) CCc1cc(Cc2cnc(N)nc2N)cc2c1N(C)CCC2C (stereo not given)    < 0%
13) CNC(=O)C1O[C@@H](n2cnc3c(NCc4cccc(I)c4)nc(Cl)nc32)[C@H](O)[C@@H]1O (stereo not given in full)    < 0%
14) OB1OCc2cc(Cl)ccc21    < 0%
15) C(=C\c1nc2ccccc2[nH]1)/c1ccc2c(c1)OCO2    5.91%
16) Cc1c(CN(C)C(=O)/C=C/c2cnc3c(c2)C(C)(C)C(=O)N3)oc2ccccc12    < 0%
17) CN(C)[C@@H]1C(=O)C(C(N)=O)=C(O)[C@@]2(O)C(=O)C3=C(O)c4c(O)c(NC(=O)CN5CCCC5)cc(F)c4C[C@H]3C[C@@H]12    < 0%
18) COc1ccc(C2CNC(=O)C2)cc1OC1CCCC1 (stereo not given)    8.32%
19) N[C@H](CCC(=O)N[C@@H](Cc1c[nH]c2ccccc12)C(=O)O)C(=O)O    6.42%
20) O=C(Nc1ccc(-c2ccccc2)cc1)C1=C(O)C(Cc2ccccc2)OC1=O (stereo not given)    < 0%

* * *

Test system: Plasmodium falciparum NF54 asexual blood stage
method: % inhibition of asexual blood stage proliferation (pLDH); higher = more inhibition
measurement-setup: 2 µM; 72 h
Listing of entries alongside the reported % inhibition of asexual blood stage proliferation.
reported-endpoint: % inhibition of asexual blood stage proliferation (%)

1) O=C(Nc1ccccc1C(=O)O)c1cccc(Oc2ccccc2)c1    -5.74
2) CCc1cc(O)c(Oc2ccc(C(N)=O)cc2F)cc1F    54.5
3) COc1cc(Cc2cc(N)nc(N)n2)cc(OC)c1OC    43.4
4) O=C(NCc1ccc(F)cc1)c1c(O)c2ncccc2[nH]c1=O    54.8
5) FC(F)(F)c1cc(C(F)(F)F)c2ccc3nc(-c4nnco4)cn3c2n1    19.6
6) CCc1cc(CCCOc2c(C)cc(-c3noc(C(F)(F)F)n3)cc2C)on1    40.1
7) C=C(C)[C@@H]1CC[C@]2(C(=O)O)CC[C@]3(C)[C@H](CC[C@@H]4[C@@]5(C)CC[C@H](O)C(C)(C)[C@@H]5CC[C@]43C)[C@@H]12    36.2
8) CC(C)/N=c1\cc2n(-c3ccc(Cl)cc3)c3ccccc3nc-2cc1Nc1ccc(Cl)cc1    82.2
9) CCn1cc(C(=O)O)c(=O)c2cc(F)c(N3CCNC(C)C3)c(F)c21 (stereo unspecified)    36.8
10) O=[N+]([O-])c1ccc2c(CCc3c[nH]c4ccccc34)c[nH]c2c1    61.5
11) CC(C)c1cc2c(cc1S(=O)(=O)O)[C@@]1(C)CCC[C@@](C)(C(=O)O)[C@@H]1CC2    26
12) CCc1oc2ccccc2c1C(=O)c1ccc(O)cc1    29.1
13) COc1cc2c(O)c3c(c(-c4ccc5c(c4)OCO5)c2cc1OC)C(=O)OC3    44.2
14) CC1(C)[C@H](C(=O)O)N2C(=O)C[C@H]2S1(=O)=O    11.2
15) Nc1nc(N)c2c(Sc3ccccc3)cccc2n1    47.8
16) Cc1ccc(NC(=O)c2cc(Cl)ccc2O)cc1    57.7
17) Oc1cc(-c2cccc3ccccc23)[nH]n1    3.8
18) Cc1cc(CCOc2c(C)cc(-c3nnn(C)n3)cc2C)on1    12.7
19) CC[C@@]1(O)C(=O)OCc2c1cc1n(c2=O)Cc2cc3c(CN(C)C)c(O)ccc3nc2-1    14.3
20) Cc1oncc1C(=O)Nc1ccc(C(F)(F)F)cc1    50.7
21) CCCC1(C2CC2)c2cc(Cl)ccc2NC(=O)N1C (stereo unspecified)    18
